Assay: Phase I first-in-human study, pharmacokinetics after single ascending subcutaneous doses in healthy volunteers
Type: in vivo
Conditions: human, plasma; single SC dose 2 mg; nominal time 0.17 h; mean; read-out: Plasma Concentration AXN-001
Procedure: For Phase I clinical studies, the 32 mg/mL pharmaceutical composition was dosed subcutaneously. […] Participants were administered a single dose (0.5 mL) of AXN-001 or placebo via subcutaneous (SC) injection into the abdomen. […] Individual plasma concentrations of ANX-001 were determined and used for analyses. Pharmacokinetic (PK) parameters of AXN-001 were determined using Phoenix WinNonlin version 8.3. […]
Bridge positions count the residues as written; N and C are the ends. Square brackets hold non-standard residues; d marks the D form. Peptide text beside a SMILES is read from it. * marks the point of attachment. Phe(2-CONH2) = NC(=O)c1ccccc1C[C@H](N)C(=O)O; Orn(iPr) = CC(C)NCCC[C@H](N)C(=O)O; Oxazole2carbonyl = O=C(c1ncco1)*; 3Pal = N[C@@H](Cc1cccnc1)C(=O)O
Test Readout: level at 0.17 h

Reported level at 0.17 h ( CC(C)NCCC[C@@H]1NC(=O)[C@@H](NC(=O)[C@H](Cc2ccccc2C(N)=O)NC(=O)[C@H](NC(=O)c2ncco2)C(C)C)CSSC[C@@H](C(=O)N[C@@H](Cc2cccnc2)C(N)=O)NC(=O)[C@H](Cc2ccccc2)NC(=O)[C@@H]2CCCN2C(=O)CNC(=O)[C@H](C(C)C)NC(=O)[C@H](CC(=O)O)NC1=O [AXN-001] (Oxazole2carbonyl-[dV][Phe(2-CONH2)]C[Orn(iPr)]DVGPFC[3Pal]-NH2; disulfide 3-10) ) = 21.6 ng/mL

----------
assay: Phase I first-in-human study, pharmacokinetics after single ascending subcutaneous doses in healthy volunteers; assay type: in vivo; details: human, plasma; single SC dose 2 mg; mean
Bridge positions count the residues as written; N and C are the ends. Square brackets hold non-standard residues; d marks the D form. Peptide text beside a SMILES is read from it. * marks the point of attachment. Phe(2-CONH2) = NC(=O)c1ccccc1C[C@H](N)C(=O)O; Orn(iPr) = CC(C)NCCC[C@H](N)C(=O)O; Oxazole2carbonyl = O=C(c1ncco1)*; 3Pal = N[C@@H](Cc1cccnc1)C(=O)O
Test Readout: half-life

Reported half-life ( CC(C)NCCC[C@@H]1NC(=O)[C@@H](NC(=O)[C@H](Cc2ccccc2C(N)=O)NC(=O)[C@H](NC(=O)c2ncco2)C(C)C)CSSC[C@@H](C(=O)N[C@@H](Cc2cccnc2)C(N)=O)NC(=O)[C@H](Cc2ccccc2)NC(=O)[C@@H]2CCCN2C(=O)CNC(=O)[C@H](C(C)C)NC(=O)[C@H](CC(=O)O)NC1=O [AXN-001] (Oxazole2carbonyl-[dV][Phe(2-CONH2)]C[Orn(iPr)]DVGPFC[3Pal]-NH2; disulfide 3-10) ) = 1.35 h

----------
experiment: Phase I first-in-human study, pharmacokinetics after single ascending subcutaneous doses in healthy volunteers; assay type: in vivo; settings: human, plasma; single SC dose 1 mg; mean
Bridge positions count the residues as written; N and C are the ends. Square brackets hold non-standard residues; d marks the D form. Peptide text beside a SMILES is read from it. * marks the point of attachment. Phe(2-CONH2) = NC(=O)c1ccccc1C[C@H](N)C(=O)O; Orn(iPr) = CC(C)NCCC[C@H](N)C(=O)O; Oxazole2carbonyl = O=C(c1ncco1)*; 3Pal = N[C@@H](Cc1cccnc1)C(=O)O
Test Readout: CL/F (mL/min)
Reply with just the number (in mL/min).

Reported CL/F ( CC(C)NCCC[C@@H]1NC(=O)[C@@H](NC(=O)[C@H](Cc2ccccc2C(N)=O)NC(=O)[C@H](NC(=O)c2ncco2)C(C)C)CSSC[C@@H](C(=O)N[C@@H](Cc2cccnc2)C(N)=O)NC(=O)[C@H](Cc2ccccc2)NC(=O)[C@@H]2CCCN2C(=O)CNC(=O)[C@H](C(C)C)NC(=O)[C@H](CC(=O)O)NC1=O [AXN-001] (Oxazole2carbonyl-[dV][Phe(2-CONH2)]C[Orn(iPr)]DVGPFC[3Pal]-NH2; disulfide 3-10) ) = 167
